Biological target: Cathepsin S (Homo sapiens, UniProt P25774)
Sequence (P25774 whole entry): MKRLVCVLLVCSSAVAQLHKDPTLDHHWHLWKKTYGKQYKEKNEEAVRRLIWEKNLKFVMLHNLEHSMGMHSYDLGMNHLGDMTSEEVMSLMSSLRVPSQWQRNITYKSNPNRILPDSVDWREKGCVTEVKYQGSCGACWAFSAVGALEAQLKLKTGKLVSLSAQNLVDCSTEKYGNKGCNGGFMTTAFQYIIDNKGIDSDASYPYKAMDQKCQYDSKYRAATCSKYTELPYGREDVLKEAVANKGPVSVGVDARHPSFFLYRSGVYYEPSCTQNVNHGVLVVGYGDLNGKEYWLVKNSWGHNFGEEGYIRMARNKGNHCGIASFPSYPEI
Test: Inhibition of human recombinant cathepsin S expressed in baculovirus by FRET assay
MEASUREMENT TYPE: IC50 (nM)
Numbers only, in nM.

>>> result_value("O=C(c1ccco1)N1CCc2c(c(-c3ccc(Cl)c(C#Cc4ccc(Cl)cc4)c3)nn2CCCN2CCOCC2)C1")
330
>>> result_value("COC(=O)N1CCc2c(c(-c3ccc(Cl)c(C#Cc4ccc(Cl)cc4)c3)nn2CCCN2CCOCC2)C1")
40
>>> result_value("COc1ccccc1C#Cc1cc(-c2nn(CCCN3CCOCC3)c3c2CN(S(C)(=O)=O)CC3)ccc1Cl")
550
>>> result_value("COc1ccc(C#Cc2cc(-c3nn(CCCN4CCOCC4)c4c3CN(S(C)(=O)=O)CC4)ccc2Cl)cc1")
480
>>> result_value("CS(=O)(=O)N1CCc2c(c(-c3ccc(Cl)c(C#Cc4ccc(C(=O)O)cc4)c3)nn2CCCN2CCOCC2)C1")
510

# batch size: 2; output IC50 per entry
1. CS(=O)(=O)N1CCc2c(c(-c3ccc(Cl)c(C#Cc4ccc(N)cc4)c3)nn2CCCN2CCOCC2)C1
2. CS(=O)(=O)N1CCc2c(c(-c3ccc(Cl)c(C#Cc4ccc(C(F)(F)F)cc4)c3)nn2CCCN2CCOCC2)C1

[430, 280]

# batch size: 5; output IC50 per entry
1. Cc1ccccc1C#Cc1cc(-c2nn(CCCN3CCOCC3)c3c2CN(S(C)(=O)=O)CC3)ccc1Cl
2. CC#Cc1cc(-c2nn(CCCN3CCOCC3)c3c2CN(S(C)(=O)=O)CC3)ccc1Cl
3. CCCCC#Cc1cc(-c2nn(CCCN3CCOCC3)c3c2CN(S(C)(=O)=O)CC3)ccc1Cl
4. CS(=O)(=O)N1CCc2c(c(-c3ccc(Cl)c(C#Cc4ccsc4)c3)nn2CCCN2CCOCC2)C1
5. CS(=O)(=O)N1CCc2c(c(-c3ccc(Cl)c(C#Cc4cccc(C(F)(F)F)c4)c3)nn2CCCN2CCOCC2)C1

[1100, 7400, 11000, 1500, 1500]

The reported measurements were obtained from ChEMBL document CHEMBL1154163.
